- tested-target: HMG CoA reductase (Rattus norvegicus)
- Construct: measured with rat liver microsomes
- Sequence (P51639 whole entry): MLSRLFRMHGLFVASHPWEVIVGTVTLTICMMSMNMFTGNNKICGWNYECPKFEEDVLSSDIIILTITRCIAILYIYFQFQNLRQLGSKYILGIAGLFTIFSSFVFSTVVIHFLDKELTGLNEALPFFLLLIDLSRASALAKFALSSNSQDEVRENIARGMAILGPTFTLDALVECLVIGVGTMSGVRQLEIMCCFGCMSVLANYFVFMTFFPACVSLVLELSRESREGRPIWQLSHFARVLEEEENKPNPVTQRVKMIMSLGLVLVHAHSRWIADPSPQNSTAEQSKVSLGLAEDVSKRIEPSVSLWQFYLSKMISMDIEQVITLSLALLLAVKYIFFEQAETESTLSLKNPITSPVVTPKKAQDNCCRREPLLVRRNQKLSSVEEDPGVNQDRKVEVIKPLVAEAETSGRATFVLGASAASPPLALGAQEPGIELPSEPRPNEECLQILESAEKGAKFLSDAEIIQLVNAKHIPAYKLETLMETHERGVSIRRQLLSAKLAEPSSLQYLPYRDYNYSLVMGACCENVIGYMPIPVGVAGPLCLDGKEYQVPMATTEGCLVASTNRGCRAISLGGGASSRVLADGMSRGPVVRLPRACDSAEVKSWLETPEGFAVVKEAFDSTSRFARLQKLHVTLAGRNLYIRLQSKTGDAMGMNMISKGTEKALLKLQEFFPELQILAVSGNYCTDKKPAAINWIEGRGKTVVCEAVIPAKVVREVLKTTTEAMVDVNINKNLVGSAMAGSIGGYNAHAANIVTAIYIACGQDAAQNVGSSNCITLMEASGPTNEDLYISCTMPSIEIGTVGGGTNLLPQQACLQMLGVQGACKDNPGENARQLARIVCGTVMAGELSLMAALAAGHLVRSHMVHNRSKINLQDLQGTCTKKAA
- procedure-details: Inhibition of HMG CoA reductase catalysis in rat liver microsomes (radioactive assay of mevalonate production)
- condition-description: pH 6.8, 37° C., 15-min. incubation, four concentrations in triplicate, 14C-HMG CoA substrate
IC50 listing for selected compounds.
Give just the numeric value; nM need not be written.

Before answering, review these 3 worked examples.
# molecule, IC50 / nM
rows = [
    ("CC[C@H](C)C(=O)O[C@H]1CCC=C2C=C[C@H](C)[C@H](/C=C/C(=O)C[C@@H](O)CC(=O)O)[C@H]21", 230),
    ("CC[C@H](C)C(=O)O[C@H]1CCC=C2C=C[C@H](C)[C@H](CC[C@@H]3C[C@@H](O)CC(=O)O3)[C@H]21", 9),
    ("CC[C@H](C)C(=O)O[C@H]1CCC=C2C=C[C@H](C)[C@H](CCC(=O)C[C@@H](O)CC(=O)O)[C@H]21", 16),
]

The record that follows has no IC50 shown yet.
Qu. Return reported IC50; argument: "CC[C@H](C)C(=O)O[C@H]1CCC=C2C=C[C@H](C)[C@H](COC(=O)C[C@@H](O)CC(=O)O)[C@H]21"
Ans. 300
